target: hERG (Homo sapiens); construct: expressed in transfected cells; assay: hERG patch clamp (whole-cell, HEK-293); assay type: cell-based; details: pH 7.4, 30,000 nM
Sequence (Q12809 whole entry): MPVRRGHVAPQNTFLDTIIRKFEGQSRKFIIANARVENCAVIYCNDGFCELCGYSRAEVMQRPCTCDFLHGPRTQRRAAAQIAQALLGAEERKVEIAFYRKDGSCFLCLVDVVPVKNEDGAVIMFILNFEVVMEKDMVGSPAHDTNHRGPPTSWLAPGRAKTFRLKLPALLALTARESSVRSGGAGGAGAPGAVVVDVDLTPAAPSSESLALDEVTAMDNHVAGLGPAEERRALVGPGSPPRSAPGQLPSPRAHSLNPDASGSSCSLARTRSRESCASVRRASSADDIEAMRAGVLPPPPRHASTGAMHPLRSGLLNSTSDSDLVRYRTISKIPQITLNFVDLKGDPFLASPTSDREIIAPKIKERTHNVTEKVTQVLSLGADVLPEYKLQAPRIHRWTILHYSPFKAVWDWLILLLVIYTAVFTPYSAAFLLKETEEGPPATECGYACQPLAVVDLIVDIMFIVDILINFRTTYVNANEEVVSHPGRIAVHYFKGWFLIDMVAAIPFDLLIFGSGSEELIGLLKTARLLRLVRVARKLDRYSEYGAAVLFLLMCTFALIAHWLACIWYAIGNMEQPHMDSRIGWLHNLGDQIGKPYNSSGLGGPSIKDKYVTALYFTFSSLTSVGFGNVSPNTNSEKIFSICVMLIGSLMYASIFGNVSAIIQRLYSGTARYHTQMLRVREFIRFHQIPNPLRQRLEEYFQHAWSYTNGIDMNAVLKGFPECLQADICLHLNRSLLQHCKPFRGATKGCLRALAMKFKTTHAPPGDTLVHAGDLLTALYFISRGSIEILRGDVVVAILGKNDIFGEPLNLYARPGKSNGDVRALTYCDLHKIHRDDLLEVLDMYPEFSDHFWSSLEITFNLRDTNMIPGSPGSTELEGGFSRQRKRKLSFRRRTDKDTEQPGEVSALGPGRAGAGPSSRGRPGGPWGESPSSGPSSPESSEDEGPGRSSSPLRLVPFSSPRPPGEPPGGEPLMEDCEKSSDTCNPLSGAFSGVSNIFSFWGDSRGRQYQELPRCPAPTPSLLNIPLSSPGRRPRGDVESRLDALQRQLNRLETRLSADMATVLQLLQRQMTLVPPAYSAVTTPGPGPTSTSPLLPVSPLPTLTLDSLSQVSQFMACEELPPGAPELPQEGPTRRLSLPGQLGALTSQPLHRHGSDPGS
Dear colleague, classification is by inhibition at 30000 nM, with ranges listed here: lo = under 20%, mid = from 20% up to 30%, hi = 30% and over

[[record]]
compound_string = "CC(C)(C)N[C@@H]1CC[C@H](N2CC[C@H](Nc3ncnc4cnc(C(C)(C)C)nc34)C2=O)[C@H](NS(C)(=O)=O)C1"
assigned_label = "lo"

[[record]]
compound_string = "CN[C@@H]1CC[C@H](N2CC[C@H](Nc3ncnc4ccc(C(F)(F)F)cc34)C2=O)[C@H](NC(C)=O)C1"
assigned_label = "mid"

[[record]]
compound_string = "CO[C@@H]1CC[C@H](N2CC[C@H](Nc3ncnc4ccc(C(F)(F)F)cc34)C2=O)[C@H](CNC(C)=O)C1"
assigned_label = "mid"

[[record]]
compound_string = "CC(C)(C)N[C@@H]1CC[C@H](N2CC[C@H](NC(=O)c3ccnc(C(C)(C)C)n3)C2=O)[C@H](NS(C)(=O)=O)C1"
assigned_label = "lo"

[[record]]
compound_string = "CC(=O)N[C@@H]1C[C@H](N(C)C(C)C)CC[C@@H]1N1CC[C@H](NC(=O)c2cccc(C(C)(C)C)n2)C1=O"
assigned_label = "hi"

[[record]]
compound_string = "CC(=O)N[C@@H]1C[C@H](N(C)C)CC[C@@H]1N1CC[C@H](Nc2ncnc3ccc(C(F)(F)F)cc23)C1=O"
assigned_label = "hi"

[[record]]
compound_string = "CCC(=O)N[C@@H]1C[C@H](N)CC[C@@H]1N1CC[C@H](Nc2ncnc3ccc(C(F)(F)F)cc23)C1=O"
assigned_label = "hi"

[[record]]
compound_string = "CC(C)N(C)[C@@H]1CC[C@H](N2CC[C@H](Nc3ncnc4ccc(C(F)(F)F)cc34)C2=O)[C@H](NC=O)C1"
assigned_label = "mid"

[[record]]
compound_string = "CC(=O)N[C@@H]1C[C@H](N(C)C(C)C)CC[C@@H]1N1CC[C@H](Nc2ncnc3cnc(C(C)(C)C)nc23)C1=O"
assigned_label = "lo"

[[record]]
compound_string = "CCC(=O)N[C@@H]1C[C@H](NC(C)(C)C)CC[C@@H]1N1CC[C@H](NC(=O)c2ccnc(C(C)(C)C)n2)C1=O"
assigned_label = "lo"


---

biological target: UniProt P41597; assay: Human peripheral blood mononuclear cell binding (CCR2 binding), 125I-human MCP-1 tracer; parameters: hPBMCs were isolated from human leukopak (Biological Specialty Inc.); endogenous in cells; host or cells: human peripheral blood mononuclear cells from leukopak (Biological Specialty Inc.); conditions: hPBMCs, 125I-MCP-1; figure in parentheses in the cell not copied (count of determinations); read-out: CCR2 Binding IC50
Sequence (P41597 1-360 isoform P41597-2): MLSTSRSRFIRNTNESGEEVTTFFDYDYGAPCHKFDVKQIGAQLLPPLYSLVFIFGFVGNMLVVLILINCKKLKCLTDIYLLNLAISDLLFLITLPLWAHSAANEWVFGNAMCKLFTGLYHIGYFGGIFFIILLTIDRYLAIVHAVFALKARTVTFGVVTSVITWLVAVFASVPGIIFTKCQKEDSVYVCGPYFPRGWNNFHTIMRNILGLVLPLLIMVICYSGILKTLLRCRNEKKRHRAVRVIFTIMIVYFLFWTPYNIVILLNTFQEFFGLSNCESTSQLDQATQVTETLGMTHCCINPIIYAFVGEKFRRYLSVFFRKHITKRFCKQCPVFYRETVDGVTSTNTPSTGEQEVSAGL
pIC50: −log10 of the molar value.
Readings of pIC50 for the listed compounds
ASSAY ENDPOINT: pIC50

[[record]]
compound = "CC(=O)N[C@@H]1C[C@H](N(C)C)CC[C@@H]1N1CC[C@H](Nc2ncnc3ccc(C(F)(F)F)cc23)C1=O [Example 8]"
assay_endpoint = "pIC50"
recorded_value = 8.45

[[record]]
compound = "CC(C)(C)N[C@@H]1CC[C@H](N2CC[C@H](NC(=O)c3ccnc(C(C)(C)C)n3)C2=O)[C@H](NS(C)(=O)=O)C1 [Example 11]"
assay_endpoint = "pIC50"
recorded_value = 8.72

[[record]]
compound = "CCC(=O)N[C@@H]1C[C@H](N)CC[C@@H]1N1CC[C@H](Nc2ncnc3ccc(C(F)(F)F)cc23)C1=O [Example 10]"
assay_endpoint = "pIC50"
recorded_value = 8.29

[[record]]
compound = "CC(C)N(C)[C@@H]1CC[C@H](N2CC[C@H](Nc3ncnc4ccc(C(F)(F)F)cc34)C2=O)[C@H](NC=O)C1 [Example 7]"
assay_endpoint = "pIC50"
recorded_value = 8.76


---

assay: Single-dose pharmacokinetics in rats; format: in vivo; settings: male, Sprague-Dawley, plasma; rat, IV; dose per compound (mg/kg)
Readings of clearance for the listed compounds
ASSAY ENDPOINT: clearance (mL/min/kg)

[[record]]
compound = "CO[C@@H]1CC[C@H](N2CC[C@H](Nc3ncnc4ccc(C(F)(F)F)cc34)C2=O)[C@H](CNC(C)=O)C1 [Example 15]"
assay_endpoint = "clearance"
result_units = "mL/min/kg"
recorded_value = 23

[[record]]
compound = "CCC(=O)N[C@@H]1C[C@H](N)CC[C@@H]1N1CC[C@H](Nc2ncnc3ccc(C(F)(F)F)cc23)C1=O [Example 10]"
assay_endpoint = "clearance"
result_units = "mL/min/kg"
recorded_value = 45

[[record]]
compound = "CC(C)(C)N[C@@H]1CC[C@H](N2CC[C@H](NC(=O)c3ccnc(C(C)(C)C)n3)C2=O)[C@H](NS(C)(=O)=O)C1 [Example 11]"
assay_endpoint = "clearance"
result_units = "mL/min/kg"
recorded_value = 56

[[record]]
compound = "CC(C)(C)N[C@@H]1CC[C@H](N2CC[C@H](Nc3ncnc4cnc(C(C)(C)C)nc34)C2=O)[C@H](NS(C)(=O)=O)C1 [Example 13]"
assay_endpoint = "clearance"
result_units = "mL/min/kg"
recorded_value = 26

[[record]]
compound = "CCC(=O)N[C@@H]1C[C@H](NC(C)(C)C)CC[C@@H]1N1CC[C@H](NC(=O)c2ccnc(C(C)(C)C)n2)C1=O [Example 12]"
assay_endpoint = "clearance"
result_units = "mL/min/kg"
recorded_value = 59


---

molecular target: hERG (Homo sapiens); construct: expressed in transfected cells; experiment: hERG patch clamp (whole-cell, HEK-293); format: cell-based; conditions: pH 7.4, 100,000 nM
ASSAY ENDPOINT: inhibition at 100000 nM

[[record]]
compound_string = "CO[C@@H]1CC[C@H](N2CC[C@H](Nc3ncnc4ccc(C(F)(F)F)cc34)C2=O)[C@H](CNC(C)=O)C1"
recorded_value = "47%"


---

assay: Single-dose pharmacokinetics in monkeys; assay type: in vivo; conditions: male, cynomolgus monkey, plasma, oral bioavailability, dose per compound (mg/kg)
ASSAY ENDPOINT: bioavailability

[[record]]
compound_string = "CO[C@@H]1CC[C@H](N2CC[C@H](Nc3ncnc4ccc(C(F)(F)F)cc34)C2=O)[C@H](CNC(C)=O)C1"
recorded_value = "19%"

[[record]]
compound_string = "CCC(=O)N[C@@H]1C[C@H](N)CC[C@@H]1N1CC[C@H](Nc2ncnc3ccc(C(F)(F)F)cc23)C1=O"
recorded_value = "67%"

[[record]]
compound_string = "CN[C@@H]1CC[C@H](N2CC[C@H](Nc3ncnc4ccc(C(F)(F)F)cc34)C2=O)[C@H](NC(C)=O)C1"
recorded_value = "91%"


---

molecular target: hERG (Homo sapiens); construct: expressed in transfected cells; assay: hERG patch clamp (whole-cell, HEK-293); format: cell-based; conditions: pH 7.4, 10,000 nM
Readings of inhibition at 10000 nM for the listed molecules
ASSAY ENDPOINT: inhibition at 10000 nM (%)

[[record]]
compound_string = "CC(C)N(C)[C@@H]1CC[C@H](N2CC[C@H](Nc3ncnc4ccc(C(F)(F)F)cc34)C2=O)[C@H](NC=O)C1"
test_target = "hERG (Homo sapiens)"
result_units = "%"
recorded_value = 12

[[record]]
compound_string = "CN[C@@H]1CC[C@H](N2CC[C@H](Nc3ncnc4ccc(C(F)(F)F)cc34)C2=O)[C@H](NC(C)=O)C1"
test_target = "hERG (Homo sapiens)"
result_units = "%"
recorded_value = 6

[[record]]
compound_string = "CC(=O)N[C@@H]1C[C@H](N(C)C(C)C)CC[C@@H]1N1CC[C@H](Nc2ncnc3cnc(C(C)(C)C)nc23)C1=O"
test_target = "hERG (Homo sapiens)"
result_units = "%"
recorded_value = 8

[[record]]
compound_string = "CC(=O)N[C@@H]1C[C@H](N(C)C(C)C)CC[C@@H]1N1CC[C@H](NC(=O)c2cccc(C(C)(C)C)n2)C1=O"
test_target = "hERG (Homo sapiens)"
result_units = "%"
recorded_value = 26

[[record]]
compound_string = "CC(=O)N[C@@H]1C[C@H](N(C)C)CC[C@@H]1N1CC[C@H](Nc2ncnc3ccc(C(F)(F)F)cc23)C1=O"
test_target = "hERG (Homo sapiens)"
result_units = "%"
recorded_value = 18

[[record]]
compound_string = "CCC(=O)N[C@@H]1C[C@H](NC(C)(C)C)CC[C@@H]1N1CC[C@H](NC(=O)c2ccnc(C(C)(C)C)n2)C1=O"
test_target = "hERG (Homo sapiens)"
result_units = "%"
recorded_value = 6


---

experiment: Single-dose pharmacokinetics in monkeys; type: in vivo; settings: male, cynomolgus monkey, plasma, PO, dose per compound (mg/kg)
ASSAY ENDPOINT: AUC (nM·h)

[[record]]
molecule = "CC(C)(C)N[C@@H]1CC[C@H](N2CC[C@H](Nc3ncnc4cnc(C(C)(C)C)nc34)C2=O)[C@H](NS(C)(=O)=O)C1 [Example 13]"
recorded_value = 263

[[record]]
molecule = "CCC(=O)N[C@@H]1C[C@H](N)CC[C@@H]1N1CC[C@H](Nc2ncnc3ccc(C(F)(F)F)cc23)C1=O [Example 10]"
recorded_value = 1080

[[record]]
molecule = "CC(=O)N[C@@H]1C[C@H](N(C)C)CC[C@@H]1N1CC[C@H](Nc2ncnc3ccc(C(F)(F)F)cc23)C1=O [Example 8]"
recorded_value = 558

[[record]]
molecule = "CCC(=O)N[C@@H]1C[C@H](NC(C)(C)C)CC[C@@H]1N1CC[C@H](NC(=O)c2ccnc(C(C)(C)C)n2)C1=O [Example 12]"
recorded_value = 413

[[record]]
molecule = "CO[C@@H]1CC[C@H](N2CC[C@H](Nc3ncnc4ccc(C(F)(F)F)cc34)C2=O)[C@H](CNC(C)=O)C1 [Example 15]"
recorded_value = 333

[[record]]
molecule = "CN[C@@H]1CC[C@H](N2CC[C@H](Nc3ncnc4ccc(C(F)(F)F)cc34)C2=O)[C@H](NC(C)=O)C1 [Example 3]"
recorded_value = 2050

